Tested on: SK-MEL-28 melanoma
PROCEDURE DETAILS: NCI-60 one-dose screen, 48 h (100 = growth as untreated, 0 = no growth, -100 = all killed)
TEST SETTINGS: 10 µM unless noted
This is part of a sample that, as a whole, favours compounds with a hit. Of some 83,000 tested, about 20% had one in any assay. Calls of active or inactive are those of the source. Rule for the calls: active = growth percent below 10; inactive = the rest.
READOUT KIND: growth

| COMPOUND | READOUT KIND | REPORTED |
| --- | --- | --- |
| O=C(O)c1cccc(CN2CCN(c3cc4c(cc3F)c(=O)c(C(=O)O)cn4C3CC3)CC2)c1O | growth | 106% (inactive) |
| Nc1cc(Cl)cc2cccnc12 | growth | 113% (inactive) |
| CCCCC(CCCCCC(CCCC)C1NC(C)Cc2cc(OC)c(OC)cc21)C1NC(C)Cc2cc(OC)c(OC)cc21 (stereo not drawn) | growth | -98% (active) |
| CN(C)CCCNc1nc(-c2cccc(C(Cl)(Cl)Cl)c2)nc(C(Cl)(Cl)Cl)n1 | growth | 103% (inactive) |
| CN(C)c1cc(NN=C(c2ccc(O)cc2)c2ccc(O)cc2)c([N+](=O)[O-])cc1[N+](=O)[O-] | growth | 81.5% (inactive) |
| C=C(C)[C@@H]1CC[C@]2(C(=O)NCCNCCNCCN)CC[C@]3(C)[C@H](CC[C@@H]4[C@@]5(C)CC[C@H](O)C(C)(C)[C@@H]5CC[C@]43C)[C@@H]12 | growth | -98.7% [100 µM] (active) |
| O=C(NNc1ccc(-c2ccccc2)nn1)c1ccccc1 | growth | 105% (inactive) |
| Cc1ccc(Cn2c(O)c(N=NC(=O)c3ccc(S(N)(=O)=O)cc3)c3ccccc32)cc1 | growth | 106% (inactive) |
| CCN(CC)c1ccc(/C=C/c2ccc3cc(C)ccc3[n+]2CC)cc1 | growth | 2.66% (active) |
| CC1Cc2c(Cl)ncnc2N(C)c2ccc(Cl)cc21 (stereo not drawn) | growth | 20.6% (inactive) |
| Cc1cc(C)c(S(=O)(=O)/N=c2/n(-c3ccccc3)nc3n2CCN3C2=NCCN2)c(C)c1 | growth | 82.3% (inactive) |
| NS(=O)(=O)c1ccc(CCN2C(=O)/C(=C\c3ccccc3)C=C2c2ccc(Cl)cc2)cc1 | growth | 101% (inactive) |
| Nc1nc(Nc2ccccc2)c2ncn(Cc3cc4c(cc3Br)OCO4)c2n1 | growth | 52% (inactive) |
| O=C1/C(=C/c2cccc(OCc3ccccc3)c2)Oc2cc(OCCN3CCCCC3)ccc21 | growth | 76.6% (inactive) |
| CCc1ccc(-c2ccc(COc3ccc(CC4SC(=O)NC4=O)cc3)cc2)cc1 (stereo not drawn) | growth | 85% (inactive) |
| OC(c1ccc(Cl)cc1)(c1ccc(Cl)cc1)C(O)(c1ccc(Cl)cc1)c1ccc(Cl)cc1 | growth | 73.7% (inactive) |
| Cn1cc(-c2noc(C(=O)c3cn(C)c4ncccc34)n2)c2ccccc21 | growth | 100% (inactive) |
| O=C(CCN1CCCCC1)c1ccc(Cl)cc1 | growth | 108% (inactive) |
| CCCn1ccnc1C(O)c1ccc(OCc2ccccc2)c(OC)c1 (stereo not drawn) | growth | 103% (inactive) |
| Nc1cc(NN=C(c2ccc(O)cc2)c2ccc(O)cc2)c([N+](=O)[O-])cc1[N+](=O)[O-] | growth | 80.8% (inactive) |
| COc1cc(C(=O)/C=C/c2c(-c3ccc(F)cc3)nc3sccn23)cc(OC)c1OC | growth | 52.2% (inactive) |
| O=C(NCCCNC(=O)OCc1ccc2c(Br)cc(Br)c(O)c2n1)OCc1ccc2c(Br)cc(Br)c(O)c2n1 | growth | -75.9% (active) |
| Nc1ccc2c(c1)Cc1cc(NC(=O)C(F)(F)F)ccc1-2 | growth | 102% (inactive) |
| Cc1ccc(-c2cc(-c3ccc(C)cc3)nc(N3CCN(CCNc4ccnc5cc(Cl)ccc45)CC3)n2)cc1 | growth | 14.6% (inactive) |
| CC[C@]1(O)CC2CN(CCc3c([nH]c4ccccc34)[C@@](C(=O)OC)(c3cc4c(cc3OC)N(C=O)[C@H]3[C@@](O)(C(=O)OC)[C@H](OC(C)=O)[C@]5(CC)C=CCN6CC[C@]43[C@@H]65)C2)C1 (stereo partly drawn) | growth | 61% (inactive) |
| C[C@H]1[C@H](C)CC[C@]2(COC(=O)CCC(=O)O)CC[C@]3(C)C(=CC[C@@H]4[C@@]5(C)CCCNC(C)(C)[C@@H]5CC[C@]43C)[C@H]12 | growth | 82.2% [100 µM] (inactive) |
| CC1Cc2c(ncnc2-n2cnc3ccccc32)N(C)c2ccccc21 (stereo not drawn) | growth | 70.4% (inactive) |
| Cn1cc(-c2noc(-c3cn(C)c4ncc(F)cc34)n2)c2cc(Br)ccc21 | growth | 83.7% (inactive) |
| C/C=C/C1OC23CCCCC2C(C#N)(C(=N)O3)C1(C#N)C#N (stereo not drawn) | growth | 109% (inactive) |
| O=C1Nc2ccccc2/C1=C/C(=O)c1ccc(N2CCCC2)cc1 | growth | 76.5% (inactive) |
| CC(C)C1=NOC(=O)C1=Cc1cn(-c2ccccc2)nc1-c1ccc(Br)cc1 | growth | 83.4% (inactive) |
| COC(=O)c1cc2c(=O)[nH]cc3c2c(n1)CCC3 | growth | 105% (inactive) |
| Nc1nc(Nc2ccccc2)c2ncn(Cc3ccc4c(c3)OCO4)c2n1 | growth | 63.5% (inactive) |
| CCOc1ccc2sc(NS(=O)(=O)c3ccc(N)cc3)nc2c1 | growth | 117% (inactive) |
| CNC(=O)c1cc(Oc2ccc3nc(NC(=O)c4ccc5ncccc5c4)sc3c2)ccn1 | growth | 101% (inactive) |
| O=C(Nc1cc(-c2cccnc2)nc(NCCCN2CCOCC2)n1)c1cc(Br)cc(C(F)(F)F)c1 | growth | -49.8% (active) |
| N=C(N)c1ccc(-c2ccc(-c3ccc(-c4cccs4)s3)s2)cc1F | growth | 101% (inactive) |
| CCOC(=O)c1ccc2nc(-c3c(C)nn(-c4ccccc4)c3N3CCOCC3)[nH]c2c1 | growth | 110% (inactive) |

###

Tested on: SW-620 colon
PROCEDURE DETAILS: NCI-60 one-dose screen, 48 h (100 = growth as untreated, 0 = no growth, -100 = all killed)
TEST SETTINGS: 10 µM unless noted
Compounds without any hit were thinned out: in the full panel of roughly 83,000, 20% have a hit. The source made the active and inactive calls. The calls were made as follows: active = growth percent below 10; inactive = the rest.
// growth lookup, one value per entry

| COMPOUND | growth |
| --- | --- |
| O=C(Nc1cccnc1)c1ccc2ccc3ccc(C(=O)Nc4cccnc4)nc3c2n1 | 11% (inactive) |
| CCN(CC)CCS(=O)(=O)CCNc1ccnc2cc(Cl)ccc12 | 7.17% (active) |
| O=C(NCCCNC(=O)OCc1ccc2c(Br)cc(Br)c(O)c2n1)OCc1ccc2c(Br)cc(Br)c(O)c2n1 | -44.7% (active) |
| Cc1ccc(NC(=O)N[C@@H](Cc2cc(F)cc(F)c2)C(=O)N[C@@H]2C(=O)N3CCC[C@H]3C(=O)N3CCCC[C@H]3C(=O)N[C@@H](C)C(=O)N3C[C@H](C)C[C@H]3C(=O)O[C@H]2C)cc1 | 35.6% (inactive) |
| COCc1nc2ccccc2[nH]1 | 106% (inactive) |
| CCNC(=O)N1CCc2c(Cl)c3c(c(OC)c2[C@@H]1[C@H]1OCc2c1ccc(OC)c2OC)OCCO3 | 17.5% (inactive) |
| NC(=S)Cc1ccccc1 | 102% (inactive) |
| COc1cc(/C=C/C(=O)/C=C/c2ccc(-n3ccnc3)cc2)ccc1O | 8.7% (active) |
| Cn1cc(-c2noc(-c3cn(C)c4ncc(F)cc34)n2)c2ccccc21 | 56.1% (inactive) |
| CCN(CC)c1cc(N)c(Cc2c(N)cc(N(CC)CC)cc2Cl)c(Cl)c1 | 80% (inactive) |
| CCOC(=O)c1nn(C2CCCCO2)c2ccc(NC(=O)CN3CCCC3)cc12 (stereo not drawn) | 97.2% (inactive) |
| N#Cc1c(Cl)nc(SCC2CO2)nc1-c1ccccc1 (stereo not drawn) | 111% (inactive) |
| O=C1/C(=C/c2ccc(OCc3ccccc3)cc2)Oc2cc(OCCN3CCCCC3)ccc21 | 71.1% (inactive) |
| CC(C)C1=NOC(=O)C1=Cc1cn(-c2ccccc2)nc1-c1ccc(Br)cc1 | 57.7% (inactive) |
| COc1ccc(C2CC(c3ccc4ccccc4c3)=NN2c2nc(O)c(C3=c4cc(OC)ccc4=NC3=O)s2)cc1 (stereo not drawn) | -42% (active) |
| C=C(C)[C@@H]1CC[C@]2(C(=O)NCCNCCNCCN)CC[C@]3(C)[C@H](CC[C@@H]4[C@@]5(C)CC[C@H](O)C(C)(C)[C@@H]5CC[C@]43C)[C@@H]12 | -86.7% [100 µM] (active) |
| Cc1ncc(C(=O)Nc2ccc(CN3CCN(C)CC3)c(C(F)(F)F)c2)cc1C#Cc1c(N)ncc2ccc(C#N)cc12 | 34.1% (inactive) |
| COC(=O)[C@]12CCC(C)(C)C[C@H]1C1=CC[C@@H]3[C@@]4(C)C/C(=C/c5cccnc5)C(=O)C(C)(C)[C@@H]4CC[C@@]3(C)[C@]1(C)CC2 | -43.4% [100 µM] (active) |

Provenance of the data: PubChem BioAssay (NCI)
